# target.desc: T1, Ecm16 (Streptomyces lasalocidi, UniProt Q0X0A9 1-792)
# T1 sequence: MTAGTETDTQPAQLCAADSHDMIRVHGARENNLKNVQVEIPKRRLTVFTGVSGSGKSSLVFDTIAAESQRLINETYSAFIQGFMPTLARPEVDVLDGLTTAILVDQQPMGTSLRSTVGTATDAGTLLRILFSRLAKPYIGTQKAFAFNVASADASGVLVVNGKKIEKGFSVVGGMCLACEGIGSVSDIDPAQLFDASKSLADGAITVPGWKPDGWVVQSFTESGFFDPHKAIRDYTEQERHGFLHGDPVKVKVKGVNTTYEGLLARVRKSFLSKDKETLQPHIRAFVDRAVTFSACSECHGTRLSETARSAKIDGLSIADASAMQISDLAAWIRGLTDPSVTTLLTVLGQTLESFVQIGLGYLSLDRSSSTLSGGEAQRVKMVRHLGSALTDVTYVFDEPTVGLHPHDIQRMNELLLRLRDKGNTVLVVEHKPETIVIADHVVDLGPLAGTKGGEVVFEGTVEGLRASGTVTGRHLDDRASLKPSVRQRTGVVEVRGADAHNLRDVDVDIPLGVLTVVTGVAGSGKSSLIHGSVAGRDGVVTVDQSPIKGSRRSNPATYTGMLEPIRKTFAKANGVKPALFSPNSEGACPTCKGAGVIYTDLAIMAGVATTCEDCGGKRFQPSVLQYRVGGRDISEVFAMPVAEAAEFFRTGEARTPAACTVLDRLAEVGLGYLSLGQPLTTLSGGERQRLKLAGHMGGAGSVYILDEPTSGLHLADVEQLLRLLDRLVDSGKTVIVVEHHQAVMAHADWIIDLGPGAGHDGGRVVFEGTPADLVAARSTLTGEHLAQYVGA
# test.name: EMSA
recorded.metric: Kd (nM)
Return type: number; implicit unit nM.

# lookup: Kd of AGTGATCAGTGGTTACGTAACCACTGATCACT (ssDNA) [32-mer ssDNA]
39.6
